Values compiled from ChEMBL document CHEMBL2311300.

Target: Induced myeloid leukemia cell differentiation protein Mcl-1 (Homo sapiens)
Assay: Inhibition of FAM-Bid peptide binding to Mcl1 (unknown origin) expressed in Escherichia coli BL21 by fluorescence polarization-based binding assay
Conditions: read-out: IC50
Provide the reported pIC50 of each item.
One number for each entry, as −log10 of the molar value.

# example entries with known answers
COMPOUND	READOUT	EXPERIMENTAL RESULT
Cc1cc2c(C(C)C)c(O)c(O)c(C=O)c2c(O)c1-c1c(C)cc2c(C(C)C)c(O)c(O)c(C=O)c2c1O [GOSSYPOL]	pIC50	5.32
N#Cc1cc(Sc2ccc(N)cc2)c[nH]c1=O	pIC50	3.88
N#Cc1cc(-c2ccc(Cl)cc2)c[nH]c1=O	pIC50	3.69
CC(C)c1ccc(Sc2cc(C#N)c(=O)n(Cc3ccccc3)c2)cc1	pIC50	3.42
N#Cc1cc(Sc2ccccc2)c[nH]c1=O	pIC50	4.09
N#Cc1cc(-c2ccccc2)c[nH]c1=O	pIC50	3.58
CCC(C)(C)c1ccc(Sc2cnc(O)c(C#N)c2)cc1	pIC50	3.75
Cc1ccc(Sc2cnc(O)c(C#N)c2)cc1	pIC50	4.20
O=C1C(=O)c2cccc3cccc1c23 [ACENAPHTHOQUINONE]	pIC50	2.85
N#Cc1cc(Sc2ccc(Br)cc2)c[nH]c1=O	pIC50	3.92

Provide pIC50 for all items below, preserving their order.
1. N#Cc1cc(-c2ccc(-c3ccccc3)cc2)cnc1O
2. N#Cc1cc(-c2cccc3ccccc23)cnc1O
3. N#Cc1ccc[nH]c1=O
4. N#CC(C#N)=c1c(=O)c2cccc3cccc1c32

1. 3.50
2. 3.80
3. 2.56
4. 4.15

`CC(C)c1ccc(Sc2c[nH]c(=O)c(C#N)c2)cc1` yielded pIC50 of 4.67

---

Biological target: Induced myeloid leukemia cell differentiation protein Mcl-1 (Homo sapiens)
Assay: Inhibition of biotin-Bim peptide binding to Mcl1 (unknown origin) expressed in Escherichia coli BL21 by ELISA
READOUT: Ki (nM)
Answers are plain numbers, in nM.

Check out these entries, answers already filled in.
COMPOUND	ASSAYED SYSTEM	Ki, nM
CC(C)c1ccc(Sc2c[nH]c(=O)c(C#N)c2)cc1	Induced myeloid leukemia cell differentiation protein Mcl-1 (Homo sapiens)	891
Cc1cc2c(C(C)C)c(O)c(O)c(C=O)c2c(O)c1-c1c(C)cc2c(C(C)C)c(O)c(O)c(C=O)c2c1O [GOSSYPOL]	Induced myeloid leukemia cell differentiation protein Mcl-1 (Homo sapiens)	214
CC(C)NC(=O)c1cc(Sc2ccc(C(C)C)cc2)c[nH]c1=O	Induced myeloid leukemia cell differentiation protein Mcl-1 (Homo sapiens)	468
CCCCNC(=O)c1cc(Sc2ccc(C(C)C)cc2)c[nH]c1=O	Induced myeloid leukemia cell differentiation protein Mcl-1 (Homo sapiens)	224
N#CC1=C2C(=NC1=O)c1cccc3c(N4CCSCC4)ccc2c13	Induced myeloid leukemia cell differentiation protein Mcl-1 (Homo sapiens)	45.7
CC(C)c1ccc(Sc2cnc(O)c(C(=O)NCCCc3ccccc3)c2)cc1	Induced myeloid leukemia cell differentiation protein Mcl-1 (Homo sapiens)	191

Below: the item to evaluate.
Recorded result, `CC(C)c1ccc(Sc2cnc(O)c(C(=O)NCc3ccccc3)c2)cc1` , Ki: 53.7

---

Target: Induced myeloid leukemia cell differentiation protein Mcl-1 (Homo sapiens, UniProt Q07820)
Sequence (Q07820 whole entry): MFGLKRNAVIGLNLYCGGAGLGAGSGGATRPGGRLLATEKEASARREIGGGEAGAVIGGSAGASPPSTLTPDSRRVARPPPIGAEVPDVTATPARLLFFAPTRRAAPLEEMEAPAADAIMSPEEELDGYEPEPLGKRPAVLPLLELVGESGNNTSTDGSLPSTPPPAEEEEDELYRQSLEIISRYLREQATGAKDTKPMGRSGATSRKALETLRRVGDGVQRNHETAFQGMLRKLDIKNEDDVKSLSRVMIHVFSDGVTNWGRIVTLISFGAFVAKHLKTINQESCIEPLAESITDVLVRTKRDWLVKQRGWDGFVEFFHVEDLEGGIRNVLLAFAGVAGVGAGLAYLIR
Assay: Inhibition of FAM-Bid peptide binding to Mcl1 (unknown origin) expressed in Escherichia coli BL21 by fluorescence polarization-based binding assay
Settings: read-out: Ki
Sorting guide: entries reporting Ki beneath 3 µM go in the 1 pile, the rest go in the 0 pile.

As a guide, the following entries are already answered.
COMPOUND	ASSAYED SYSTEM	CLASS ASSIGNMENT
Cc1ccc(Sc2cnc(O)c(C#N)c2)cc1	Induced myeloid leukemia cell differentiation protein Mcl-1 (Homo sapiens, UniProt Q07820)	1
Cc1cc2c(C(C)C)c(O)c(O)c(C=O)c2c(O)c1-c1c(C)cc2c(C(C)C)c(O)c(O)c(C=O)c2c1O [GOSSYPOL]	Induced myeloid leukemia cell differentiation protein Mcl-1 (Homo sapiens, UniProt Q07820)	1
CCC(C)(C)c1ccc(Sc2cnc(O)c(C#N)c2)cc1	Induced myeloid leukemia cell differentiation protein Mcl-1 (Homo sapiens, UniProt Q07820)	0
N#Cc1ccc[nH]c1=O	Induced myeloid leukemia cell differentiation protein Mcl-1 (Homo sapiens, UniProt Q07820)	0
CC(C)c1ccc(Sc2c[nH]c(=O)c(C#N)c2)cc1	Induced myeloid leukemia cell differentiation protein Mcl-1 (Homo sapiens, UniProt Q07820)	1

In the following, a different compound is considered.
Does the reported Ki of O=C1C(=O)c2cccc3cccc1c23 [ACENAPHTHOQUINONE] stay below 3 µM?
0
